- Target System: CB2 (Homo sapiens (Human))
- Sequence (P34972 whole entry): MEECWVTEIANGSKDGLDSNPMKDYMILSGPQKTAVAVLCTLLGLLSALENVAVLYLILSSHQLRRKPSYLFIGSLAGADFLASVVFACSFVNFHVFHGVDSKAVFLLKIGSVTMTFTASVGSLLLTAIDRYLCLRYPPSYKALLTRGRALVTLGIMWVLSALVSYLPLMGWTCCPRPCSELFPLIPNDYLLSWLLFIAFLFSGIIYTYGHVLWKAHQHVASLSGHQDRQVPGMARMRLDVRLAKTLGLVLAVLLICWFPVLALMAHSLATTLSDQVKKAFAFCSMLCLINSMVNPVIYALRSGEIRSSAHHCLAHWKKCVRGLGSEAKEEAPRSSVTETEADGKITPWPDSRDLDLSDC
- Protocol Description: Displacement of [3H]CP55940 in membranes of CHO-K1 cells over-expressing CB2
- Type: binding
- Protocol Conditions: radioligand [3H]CP55940, CHO-K1 membranes; read-out: Ki (nM) v. [3H]CP55940 at CB2
Value Kind: Ki

Field: example entries. Status: answers known.
CC(C)(C)NC(=O)C1(c2ccccc2)CCN(c2ncnc3c2nc(-c2ccccc2Cl)n3-c2ccc(Cl)cc2)CC1; 20000 nM
CCOC(=O)NC1CCN(c2ncnc3c2nc(-c2ccccc2Cl)n3-c2ccc(Cl)cc2)CC1 [drawing 62]; 426 nM
NC(=O)C1(c2ccccc2)CCN(c2ncnc3c2nc(-c2ccccc2Cl)n3-c2ccc(Cl)cc2)CC1; 5510 nM
O=S(=O)(NC1CCN(c2ncnc3c2nc(-c2ccccc2Cl)n3-c2ccc(Cl)cc2)CC1)C(F)(F)F; 4500 nM

Exercise: GET /values?readout=Ki&item= NC1(c2ccccc2)CCN(c2ncnc3c2nc(-c2ccccc2Cl)n3-c2ccc(Cl)cc2)CC1
Key: 1660 nM

---

- Target System: CB1 (Homo sapiens (Human), UniProt P21554)
- Sequence (P21554 whole entry): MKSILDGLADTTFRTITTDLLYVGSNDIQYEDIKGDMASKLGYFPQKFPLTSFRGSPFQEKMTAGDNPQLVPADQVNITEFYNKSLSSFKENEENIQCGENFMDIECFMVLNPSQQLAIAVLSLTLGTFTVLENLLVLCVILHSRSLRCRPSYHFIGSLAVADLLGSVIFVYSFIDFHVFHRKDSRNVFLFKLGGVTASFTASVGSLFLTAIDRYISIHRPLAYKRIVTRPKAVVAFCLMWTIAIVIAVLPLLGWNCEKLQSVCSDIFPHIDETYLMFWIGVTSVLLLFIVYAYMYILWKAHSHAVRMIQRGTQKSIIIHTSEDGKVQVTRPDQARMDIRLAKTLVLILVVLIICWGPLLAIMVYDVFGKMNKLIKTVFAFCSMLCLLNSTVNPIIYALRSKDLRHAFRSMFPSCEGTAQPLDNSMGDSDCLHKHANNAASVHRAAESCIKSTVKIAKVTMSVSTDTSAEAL
- Protocol Description: CB1 activated Gαq16-coupled intracellular calcium mobilization assay in CHO-K1 cells
- Format: cell-based
- Protocol Conditions: apparent affinity (Ke)
Labelling field: enter fulfilled if recorded Ke (nM) at CB1 is less than 50 nM. Enter not fulfilled if it equals or exceeds that cut-off.

NS(=O)(=O)NC1CCN(c2ncnc3c2nc(-c2ccccc2Cl)n3-c2ccc(Cl)cc2)CC1; not fulfilled
CC(C)(C)OC(=O)NC1CCN(c2ncnc3c2nc(-c2ccccc2Cl)n3-c2ccc(Cl)cc2)CC1; fulfilled

Exercise: I'd appreciate it if you could check whether CS(=O)(=O)N1CCC(Nc2ncnc3c2nc(-c2ccccc2Cl)n3-c2ccc(Cl)cc2)CC1 has Ke (nM) at CB1 smaller than 50 nM.
Key: not fulfilled

Exercise: Lookup O=C(CC1CCCCC1)NC1CCN(c2ncnc3c2nc(-c2ccccc2Cl)n3-c2ccc(Cl)cc2)CC1
Key: fulfilled

Exercise: Lookup CS(=O)(=O)NC1CCN(c2ncnc3c2nc(-c2ccccc2Cl)n3-c2ccc(Cl)cc2)CC1
Key: not fulfilled

Exercise: Lookup NC(=O)C1(c2ccccc2)CCN(c2ncnc3c2nc(-c2ccccc2Cl)n3-c2ccc(Cl)cc2)CC1
Key: fulfilled

Exercise: Lookup O=S1(=O)CCN(c2ncnc3c2nc(-c2ccccc2Cl)n3-c2ccc(Cl)cc2)CC1
Key: not fulfilled

---

- Protocol Description: Brain penetration / plasma and brain levels after oral dosing in SD rats
- Assay type: in vivo, Sprague-Dawley (SD) rats
- Protocol Conditions: Sprague-Dawley, rat, in vivo, oral 10 mg/kg
Value Kind: Cmax (ng/g)
Field: numeric (ng/g). Do not append units.

Exercise: GET /values?readout=Cmax&item= CS(=O)(=O)NC1(c2ccccc2)CCN(c2ncnc3c2nc(-c2ccccc2Cl)n3-c2ccc(Cl)cc2)CC1
Key: 1650

---

- Target System: CB1 (Homo sapiens (Human))
- Protocol Description: CB1 activated Gαq16-coupled intracellular calcium mobilization assay in CHO-K1 cells
- Type: cell-based
- Protocol Conditions: apparent affinity (Ke)
Value Kind: Ke (nM) at CB1
Field: numeric (nM). Do not append units.

CC(C)NC(=O)N1CCC(Nc2ncnc3c2nc(-c2ccccc2Cl)n3-c2ccc(Cl)cc2)CC1; 495
CC(C)NC(=O)NC1CCN(c2ncnc3c2nc(-c2ccccc2Cl)n3-c2ccc(Cl)cc2)CC1; 133
CC(C)(C)NC(=O)NC1(c2ccccc2)CCN(c2ncnc3c2nc(-c2ccccc2Cl)n3-c2ccc(Cl)cc2)CC1; 19.17
CC(C)CC(=O)NC1CCN(c2ncnc3c2nc(-c2ccccc2Cl)n3-c2ccc(Cl)cc2)CC1; 5.4
O=C(NC1CCN(c2ncnc3c2nc(-c2ccccc2Cl)n3-c2ccc(Cl)cc2)CC1)C1CCCC1; 0.89
CCNC(=O)N1CCC(Nc2ncnc3c2nc(-c2ccccc2Cl)n3-c2ccc(Cl)cc2)CC1; 1148
NC1(c2ccccc2)CCN(c2ncnc3c2nc(-c2ccccc2Cl)n3-c2ccc(Cl)cc2)CC1; 15.89

Proceed to the following item.
Exercise: GET /values?readout=Ke (nM) at CB1&item= O=C(NC1CCN(c2ncnc3c2nc(-c2ccccc2Cl)n3-c2ccc(Cl)cc2)CC1)C1CCCCC1
Key: 3.3
